Provenance of the data: the supplement of paper PMC7877785

- assay.info: self-splicing fitness, log relative to wild type (ln ratio); higher = more splicing; Tetrahymena group I intron in knt gene, E. coli kanamycin selection, DiMSum; sequences stand for … in CUCUCU…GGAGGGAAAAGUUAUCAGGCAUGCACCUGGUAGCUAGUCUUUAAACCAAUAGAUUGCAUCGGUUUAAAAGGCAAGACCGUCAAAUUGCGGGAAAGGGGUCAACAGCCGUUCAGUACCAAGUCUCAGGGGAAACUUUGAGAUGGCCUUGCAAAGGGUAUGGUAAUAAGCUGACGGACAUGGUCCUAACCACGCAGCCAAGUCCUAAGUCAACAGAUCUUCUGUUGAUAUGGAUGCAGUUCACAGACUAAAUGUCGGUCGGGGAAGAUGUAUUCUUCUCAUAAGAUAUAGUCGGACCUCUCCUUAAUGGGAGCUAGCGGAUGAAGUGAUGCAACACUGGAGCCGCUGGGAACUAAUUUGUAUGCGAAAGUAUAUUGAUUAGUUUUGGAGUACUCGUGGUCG;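 further: selection with 25 µg/mL kanamycin versus none on LB agar overnight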
- experimental.setup: 30 °C
Lab note: compare self-splicing fitness (ln) against -3. Equal or greater, write y. Smaller, write n.

CAUUAGCAAUAUUACGAUGU	n
UGGAAGCAAUAUUACGAGCA	y
AUUCAGCAAUAUUACGGUUG	y
AGUCAGCAAUAUUACGACGC	y
ACUGAGCAAUAUUACGGAUG	y
CAUUAGCAAUAUUACGUUCG	y

Now for a further sequence.
## Input Textbook exercise: given the entry CUAGAGCAAUAUUACGAGAU , state whether its self-splicing fitness (ln) is greater than or equal to -3.
## Output n

###

self-splicing fitness (ln) reference
- assay.info: self-splicing fitness, log relative to wild type (ln ratio); higher = more splicing; Tetrahymena group I intron in knt gene, E. coli kanamycin selection, DiMSum; sequences stand for … in CUCUCU…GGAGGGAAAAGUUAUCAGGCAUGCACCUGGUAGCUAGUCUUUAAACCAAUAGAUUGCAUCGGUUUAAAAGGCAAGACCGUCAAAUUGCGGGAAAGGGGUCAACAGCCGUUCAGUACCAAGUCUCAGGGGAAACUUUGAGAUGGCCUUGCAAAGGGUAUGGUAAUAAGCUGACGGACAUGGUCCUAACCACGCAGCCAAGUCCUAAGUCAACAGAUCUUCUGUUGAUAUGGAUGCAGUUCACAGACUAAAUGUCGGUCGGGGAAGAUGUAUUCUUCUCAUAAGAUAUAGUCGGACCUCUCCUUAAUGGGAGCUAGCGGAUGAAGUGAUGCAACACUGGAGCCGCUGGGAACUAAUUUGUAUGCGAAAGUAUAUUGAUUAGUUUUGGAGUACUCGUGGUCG
- experimental.setup: 30 °C
When you answer, write just the number.

Would you please look over these solved cases?
AGGCAGCAAUAUUACGGCUC	-0.958
UGUAAGCAAUAUUACGGUCU	-0.465
UCUUAGCAAUAUUACGGGAU	-3.65

## Input Which self-splicing fitness (ln) is reported for this sequence? UGCUAGCAAUAUUACGCUUC
## Output -1.65

## Input Which self-splicing fitness (ln) is reported for this sequence? UAUUAGCAAUAUUACGCAUG
## Output -0.961

## Input Which self-splicing fitness (ln) is reported for this sequence? GGAAAGCAAUAUUACGAGGG
## Output -3.74

## Input Which self-splicing fitness (ln) is reported for this sequence? UUCCAGCAAUAUUACGAUGG
## Output -2.91

## Input Which self-splicing fitness (ln) is reported for this sequence? AGAAAGCAAUAUUACGUAGC
## Output -4.04

###

- assay.info: self-splicing fitness, log relative to wild type (ln ratio); higher = more splicing; Tetrahymena group I intron in knt gene, E. coli kanamycin selection, DiMSum; sequences stand for … in CUCUCU…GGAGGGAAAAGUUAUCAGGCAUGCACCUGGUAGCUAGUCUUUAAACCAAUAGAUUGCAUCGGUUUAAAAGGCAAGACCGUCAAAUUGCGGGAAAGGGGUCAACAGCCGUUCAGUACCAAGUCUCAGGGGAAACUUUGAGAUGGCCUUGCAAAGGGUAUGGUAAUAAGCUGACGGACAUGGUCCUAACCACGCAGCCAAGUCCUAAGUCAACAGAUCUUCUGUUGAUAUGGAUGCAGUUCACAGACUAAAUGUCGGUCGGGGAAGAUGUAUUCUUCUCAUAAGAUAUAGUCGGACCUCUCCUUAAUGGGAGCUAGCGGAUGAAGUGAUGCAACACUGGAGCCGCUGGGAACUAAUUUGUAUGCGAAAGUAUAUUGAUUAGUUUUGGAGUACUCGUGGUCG
- experimental.setup: 30 °C
readout.type: self-splicing fitness (ln)

ACUAAGCAAUAUUACGAACA	-1.86
CUACAGCAAUAUUACGCAGC	-2.28
GACCAGCAAUAUUACGACGC	0.184

## Input Which self-splicing fitness (ln) is reported for this sequence? UUAAAGCAAUAUUACGGACA
## Output -0.00448

## Input Which self-splicing fitness (ln) is reported for this sequence? GGCAAGCAAUAUUACGAUUG
## Output -3.03

###

- assay.info: self-splicing fitness, log relative to wild type (ln ratio); higher = more splicing; Tetrahymena group I intron in knt gene, E. coli kanamycin selection, DiMSum; sequences stand for … in CUCUCU…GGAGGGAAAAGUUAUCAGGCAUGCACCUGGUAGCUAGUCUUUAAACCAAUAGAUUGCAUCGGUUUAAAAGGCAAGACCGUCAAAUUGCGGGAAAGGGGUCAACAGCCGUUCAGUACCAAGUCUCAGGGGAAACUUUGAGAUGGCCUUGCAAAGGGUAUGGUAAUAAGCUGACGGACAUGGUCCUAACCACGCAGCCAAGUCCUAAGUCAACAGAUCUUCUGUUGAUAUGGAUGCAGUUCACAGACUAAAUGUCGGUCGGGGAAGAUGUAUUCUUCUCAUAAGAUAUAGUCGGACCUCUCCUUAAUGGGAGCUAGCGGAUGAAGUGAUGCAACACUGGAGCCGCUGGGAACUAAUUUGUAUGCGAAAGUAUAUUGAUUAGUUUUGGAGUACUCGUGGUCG
- experimental.setup: 30 °C
self-splicing fitness (ln) reference
When you answer, write just the number.

Would you please look over these solved cases?
GCCGAGCAAUAUUACGCUGC	-4.22
UGCGAGCAAUAUUACGUACU	-2.58
UAAAAGCAAUAUUACGGCCC	-2.11
GAAAAGCAAUAUUACGGAAA	-2.88

## Input Which self-splicing fitness (ln) is reported for this sequence? CUUUAGCAAUAUUACGGGGU
## Output -3.02

## Input Which self-splicing fitness (ln) is reported for this sequence? CUGAAGCAAUAUUACGGACA
## Output -1.79

## Input Which self-splicing fitness (ln) is reported for this sequence? UCAAAGCAAUAUUACGGGAC
## Output -1.98

## Input Which self-splicing fitness (ln) is reported for this sequence? UACGAGCAAUAUUACGUUCU
## Output -2.38

###

- assay.info: self-splicing fitness, log relative to wild type (ln ratio); higher = more splicing; Tetrahymena group I intron in knt gene, E. coli kanamycin selection, DiMSum; sequences stand for … in CUCUCU…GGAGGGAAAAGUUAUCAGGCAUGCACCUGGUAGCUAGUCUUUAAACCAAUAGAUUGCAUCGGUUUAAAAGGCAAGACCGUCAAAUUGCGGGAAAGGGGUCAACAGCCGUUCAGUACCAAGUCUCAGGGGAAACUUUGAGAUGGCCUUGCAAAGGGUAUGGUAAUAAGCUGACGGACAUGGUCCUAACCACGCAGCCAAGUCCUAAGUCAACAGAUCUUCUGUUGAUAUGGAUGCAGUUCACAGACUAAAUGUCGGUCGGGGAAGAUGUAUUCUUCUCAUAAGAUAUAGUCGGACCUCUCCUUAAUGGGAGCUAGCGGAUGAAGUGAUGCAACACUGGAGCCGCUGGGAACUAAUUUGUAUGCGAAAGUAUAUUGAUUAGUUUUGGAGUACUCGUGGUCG
- experimental.setup: 37 °C
self-splicing fitness (ln) reference
When you answer, write just the number.

GGUAAGCAAUAUUACGGCAC	-0.531
AGAUAGCAAUAUUACGACCG	0.121
UGAGAGCAAUAUUACGCGGU	-0.929
ACUGAGCAAUAUUACGGCGA	-1.19

## Input Which self-splicing fitness (ln) is reported for this sequence? GUGUAGCAAUAUUACGCGUG
## Output -1.49

## Input Which self-splicing fitness (ln) is reported for this sequence? AGGGAGCAAUAUUACGUACU
## Output -0.673

## Input Which self-splicing fitness (ln) is reported for this sequence? GAGCAGCAAUAUUACGAUUC
## Output -0.29

###

- assay.info: self-splicing fitness, log relative to wild type (ln ratio); higher = more splicing; Tetrahymena group I intron in knt gene, E. coli kanamycin selection, DiMSum; sequences stand for … in CUCUCU…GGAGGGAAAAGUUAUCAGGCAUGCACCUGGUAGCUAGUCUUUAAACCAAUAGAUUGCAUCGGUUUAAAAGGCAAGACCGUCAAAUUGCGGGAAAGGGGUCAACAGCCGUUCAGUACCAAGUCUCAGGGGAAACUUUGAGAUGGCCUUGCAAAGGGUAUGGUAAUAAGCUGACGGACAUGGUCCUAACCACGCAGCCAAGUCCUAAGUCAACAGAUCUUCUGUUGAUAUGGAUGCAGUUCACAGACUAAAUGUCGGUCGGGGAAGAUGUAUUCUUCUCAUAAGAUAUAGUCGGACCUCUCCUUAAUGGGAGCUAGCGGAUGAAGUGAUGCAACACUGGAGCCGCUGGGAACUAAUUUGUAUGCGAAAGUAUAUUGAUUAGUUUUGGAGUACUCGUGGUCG
- experimental.setup: 30 °C
readout.type: self-splicing fitness (ln)
When you answer, write just the number.

Would you please look over these solved cases?
UCUCAGCAAUAUUACGUUCC	-2.72
GGUCAGCAAUAUUACGGCGG	-0.828
AAGCAGCAAUAUUACGAAAU	-2.65
CCAGAGCAAUAUUACGGCAA	-2.25
CCCAAGCAAUAUUACGCGAU	-3.93
CGCGAGCAAUAUUACGUGCU	-2.71
GGCCAGCAAUAUUACGAGAG	-3.27
GAGAAGCAAUAUUACGUGAG	-1.32
AUUAAGCAAUAUUACGGUGU	-2.11
GCUUAGCAAUAUUACGCAAC	-2.43

## Input Which self-splicing fitness (ln) is reported for this sequence? UACAAGCAAUAUUACGAGCG
## Output -0.155

## Input Which self-splicing fitness (ln) is reported for this sequence? CGGCAGCAAUAUUACGCUCA
## Output -0.116

## Input Which self-splicing fitness (ln) is reported for this sequence? CAUUAGCAAUAUUACGCGAU
## Output -3.83

## Input Which self-splicing fitness (ln) is reported for this sequence? UAUAAGCAAUAUUACGGAGU
## Output -3.46

## Input Which self-splicing fitness (ln) is reported for this sequence? CAAUAGCAAUAUUACGGUAC
## Output -3.25

## Input Which self-splicing fitness (ln) is reported for this sequence? CGGUAGCAAUAUUACGGCCC
## Output -0.507
